- system: B-Raf (V600E) (SEQ. ID NO: 4) kinase (Homo sapiens (Human), UniProt P15056, V600E)
- Sequence (P15056 416-766 V600E): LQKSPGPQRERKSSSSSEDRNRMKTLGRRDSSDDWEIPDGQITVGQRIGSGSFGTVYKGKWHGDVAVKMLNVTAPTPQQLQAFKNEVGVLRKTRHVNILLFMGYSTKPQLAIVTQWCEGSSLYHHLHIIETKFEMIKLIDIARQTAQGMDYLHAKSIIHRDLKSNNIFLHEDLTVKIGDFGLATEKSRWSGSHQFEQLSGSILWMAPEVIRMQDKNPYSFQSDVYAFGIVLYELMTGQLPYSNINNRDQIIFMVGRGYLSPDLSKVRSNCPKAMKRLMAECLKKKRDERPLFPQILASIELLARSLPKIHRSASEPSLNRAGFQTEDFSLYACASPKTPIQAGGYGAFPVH
- assay details: Biochemical Assay for B-Raf (V600E) (1)
- condition label: Table J, BRAF V600E, biochemical assay (1); read-out: BRAF VE (1)
pIC50: −log10 of the molar value.
observation type: pIC50

{"columns": ["compound", "measured"],
 "data": [
  ["COC(=O)Nc1cc(-c2cc(-c3cc(NC(=O)c4ccnc(C(C)(C)F)c4)ccc3C)cc(OCCO)n2)ccn1 [Example 401]", "≥ 7.00"],
  ["COC(=O)Nc1cc(-c2cnnc(-c3cc(NC(=O)c4cn(C(C)C)nn4)ccc3C)c2)ccn1 [Example 409]", "6.00 to 6.30"],
  ["CNC(=O)c1cc(-c2cncc(-c3cc(NC(=O)c4ccnc(C(C)(C)F)c4)ccc3C)c2)ccn1 [Example 413]", "≥ 7.00"]
]}

----------
- System: WM3928 cells
- assay details: WM3928 Cell Proliferation Assay (1)
- Assay type: cell-based
- Description: WM3928 Cell Proliferation Assay (1) WM3928 cells (#WM3928-01-0001) are obtained from Rockland Immunochemicals Inc (Gilbertsville, PA). […] Plates are read on a Synergy2 or equivalent reader (Biotek, Winooski VT) using an excitation of 540 nm and an emission of 600 nm. Data is analyzed using Prism software (GraphPad, San Diego, CA) to calculate IC50 values.
pIC50: −log10 of the molar value.

{"columns": ["structure smiles string", "pIC50"],
 "data": [
  ["CNC(=O)c1cc(-c2cc(-c3cc(NC(=O)c4ccnc(C(C)(C)C#N)c4)ccc3OC)ccn2)ccn1", "6.00 to 6.30"],
  ["CC(=O)Nc1cc(-c2cc(-c3cc(NC(=O)c4ccnc(C(C)(C)C#N)c4)ccc3C)cn(C)c2=O)ccn1", "6.30 to 7.00"],
  ["CNC(=O)c1cc(-c2cncc(-c3cc(NC(=O)c4ccnc(C(C)(C)C#N)c4)ccc3C)n2)ccn1", "≥ 7.00"],
  ["COC(=O)Nc1cc(-c2cncc(-c3cc(NC(=O)c4ccnc(C(C)(C)F)c4)ccc3C)c2)ccn1", "≥ 7.00"],
  ["COC(=O)Nc1cc(-c2cc(-c3cc(NC(=O)c4ccnc(C(C)(C)F)c4)c(F)cc3C)cc(C)n2)ccn1", "6.30 to 7.00"],
  ["Cc1ccc(NC(=O)c2ccnc(C(C)(C)C#N)c2)cc1-c1cccc(-c2cc(NC(=O)C3(F)CC3)ncn2)c1", "≥ 7.00"]
]}

----------
// reported IC50 for each item listed
- system: C-Raf kinase (SEQ. ID NO: 3) (Homo sapiens (Human), UniProt P04049, Y340D/Y341D)
- Sequence (P04049 307-648 Y340D/Y341D): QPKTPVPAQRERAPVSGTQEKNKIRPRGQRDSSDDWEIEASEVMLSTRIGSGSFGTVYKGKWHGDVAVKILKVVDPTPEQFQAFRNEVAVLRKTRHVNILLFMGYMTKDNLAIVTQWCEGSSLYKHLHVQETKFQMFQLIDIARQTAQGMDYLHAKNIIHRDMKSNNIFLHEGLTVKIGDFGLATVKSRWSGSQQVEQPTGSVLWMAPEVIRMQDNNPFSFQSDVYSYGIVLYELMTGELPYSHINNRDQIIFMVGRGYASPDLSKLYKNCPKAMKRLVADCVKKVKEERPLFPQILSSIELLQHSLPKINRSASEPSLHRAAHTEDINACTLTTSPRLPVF
- assay details: Biochemical Assay for C-Raf (1)
- condition label: Table J, assay version (1); read-out: CRAF (1) IC50

{"columns": ["structure smiles string", "IC50"],
 "data": [
  ["Cc1cc(F)c(NC(=O)c2ccnc(C(F)(F)F)c2)cc1-c1ccnc(-c2ccnc(NC=O)c2)c1", "≤ 100 nM"],
  ["CC(=O)Nc1cc(-c2cc(-c3cc(C(=O)Nc4ccnc(C(F)(F)F)c4)ccc3C)ccn2)ccn1", "≤ 100 nM"],
  ["CNC(=O)c1cc(-c2ccnc(-c3cc(NC(=O)c4ccnc(C(C)(C)OC)c4)ccc3C)n2)ccn1", "100 to 500 nM"],
  ["CNC(=O)c1cc(-c2ccnc(-c3cc(NC(=O)c4ccnc(C(C)(C)C#N)c4)ccc3C)n2)ccn1", "≤ 100 nM"],
  ["COC(=O)Nc1cc(-c2cnnc(-c3cc(NC(=O)c4ccnc(C(C)(C)F)c4)cnc3C)c2)ccn1", "≤ 100 nM"],
  ["Cc1ccc(NC(=O)c2ccnc(C(C)(C)C#N)c2)cc1-c1cncc(-c2ccnc3c2CC(=O)N3)n1", "≤ 100 nM"],
  ["CC(=O)Nc1cc(-c2cc(-c3cc(NC(=O)c4ccnc(C(F)(F)F)c4)c(F)cc3C)cc(OC(C)C)n2)ccn1", "100 to 500 nM"],
  ["Cc1cc(F)c(NC(=O)c2ccnc(C(C)(C)C#N)c2)cc1-c1nccc(-c2ccnc(NC(=O)C3CC3)c2)n1", "≤ 100 nM"],
  ["CC(=O)Nc1cc(-c2nccc(-c3cc(NC(=O)c4ccnc(C(F)(F)F)c4)cnc3C)n2)ccn1", "≤ 100 nM"],
  ["COC(=O)Nc1cc(-c2cnnc(-c3cc(NC(=O)c4cccc(C(C)(C)C#N)c4)ccc3C)c2)ccn1", "≤ 100 nM"]
]}

src = patent US12319655B2
